Target: rat GHS-R (GHS receptor) expressed on CHO-GHSR62 cells (rat) (UniProt O08725)
Sequence (O08725 whole entry): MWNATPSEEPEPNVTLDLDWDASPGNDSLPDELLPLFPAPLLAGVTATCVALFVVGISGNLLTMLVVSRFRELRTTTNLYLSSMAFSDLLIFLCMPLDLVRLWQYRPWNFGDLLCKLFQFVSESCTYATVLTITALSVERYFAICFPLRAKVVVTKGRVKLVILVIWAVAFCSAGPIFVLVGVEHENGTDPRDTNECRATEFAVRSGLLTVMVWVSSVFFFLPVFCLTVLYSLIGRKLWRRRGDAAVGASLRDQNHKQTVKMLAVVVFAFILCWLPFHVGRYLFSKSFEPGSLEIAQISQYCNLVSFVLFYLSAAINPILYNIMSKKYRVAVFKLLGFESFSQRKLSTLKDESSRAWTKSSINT
Test: cell-based or functional assay
Ends that are not written are not given here. * marks the point of attachment. Octanoyl = CCCCCCCC(=O)*; Octyl = CCCCCCCC*
Assay readout: Ca-releasing activity EC50 (nM)

Binder	Ca-releasing activity EC50 (nM)
GSS(Octanoyl)FLSPK-NH2 (N-terminus assumed; SMILES CCCCCCCC(=O)OC[C@H](NC(=O)[C@H](CO)NC(=O)CN)C(=O)N[C@@H](Cc1ccccc1)C(=O)N[C@@H](CC(C)C)C(=O)N[C@@H](CO)C(=O)N1CCC[C@H]1C(=O)N[C@@H](CCCCN)C(N)=O) [[Lys^8]-Ghrelin (1-8)-amide]	1.1
GKS(Octanoyl)FLSP-NH2 (N-terminus assumed; SMILES CCCCCCCC(=O)OC[C@H](NC(=O)[C@H](CCCCN)NC(=O)CN)C(=O)N[C@@H](Cc1ccccc1)C(=O)N[C@@H](CC(C)C)C(=O)N[C@@H](CO)C(=O)N1CCC[C@H]1C(N)=O) [[Lys^2]-Ghrelin (1-7)-amide]	24
GSS(Octanoyl)FLSPR-NH2 (N-terminus assumed; SMILES CCCCCCCC(=O)OC[C@H](NC(=O)[C@H](CO)NC(=O)CN)C(=O)N[C@@H](Cc1ccccc1)C(=O)N[C@@H](CC(C)C)C(=O)N[C@@H](CO)C(=O)N1CCC[C@H]1C(=O)N[C@@H](CCCNC(=N)N)C(N)=O) [[Arg^8]-Ghrelin (1-8)-amide]	1.1
GSS(Octanoyl)FK-NH2 (N-terminus assumed; SMILES CCCCCCCC(=O)OC[C@H](NC(=O)[C@H](CO)NC(=O)CN)C(=O)N[C@@H](Cc1ccccc1)C(=O)N[C@@H](CCCCN)C(N)=O) [[Lys^5]-Ghrelin (1-5)-amide]	10
GSC(Octyl)FLSP-NH2 (N-terminus assumed; SMILES CCCCCCCCSC[C@H](NC(=O)[C@H](CO)NC(=O)CN)C(=O)N[C@@H](Cc1ccccc1)C(=O)N[C@@H](CC(C)C)C(=O)N[C@@H](CO)C(=O)N1CCC[C@H]1C(N)=O) [[Cys^3(Octyl)]-Ghrelin (1-7)-amide]	7.4

1. GSS(Octanoyl)FLK-NH2 (N-terminus assumed; SMILES CCCCCCCC(=O)OC[C@H](NC(=O)[C@H](CO)NC(=O)CN)C(=O)N[C@@H](Cc1ccccc1)C(=O)N[C@@H](CC(C)C)C(=O)N[C@@H](CCCCN)C(N)=O) [[Lys^6]-Ghrelin (1-6)-amide]
2. GSC(Octyl)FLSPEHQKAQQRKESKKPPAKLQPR [[Cys^3(Octyl)]-rGhrelin]
Could you check which of 1 and 2 has a smaller value for Ca-releasing activity EC50? // return label of chosen record
2
